assay: Cmax in male ICR mouse at 25 mg/kg, po measured upto 24 hrs by LC-MS/MS analysis; type: ADME, organism-based; conditions: in vivo
MEASURED_QUANTITY: Cmax (ng/mL)
Please give a number only; it is taken to be in ng/mL.

The compound identified as O=c1ccc2c(N3C[C@@H]4[C@@H](CCP(=O)(O)O)[C@@H]4C3)ncnc2[nH]1 registered its Cmax at 352

###

test: Observed volume of distribution at steady state in male ICR mouse at 5 mg/kg, iv measured upto 24 hrs by LC-MS/MS analysis; assay type: ADME, organism-based; settings: in vivo, read-out: Vdss
MEASURED_QUANTITY: Vd (L/kg)
Give the value in L/kg but do not write L/kg after it.

Record O=c1ccc2c(N3C[C@@H]4[C@@H](CCP(=O)(O)O)[C@@H]4C3)ncnc2[nH]1 , field Vd: 0.373

###

assay: Drug concentration in BALB/c mouse plasma at 100 mg/kg, sc measured after 0.5 hrs by LC-MS/MS analysis; assay type: ADME, organism-based
MEASURED_QUANTITY: concentration at 0.5 h (µM)
Provide only the numeric value, understood in µM.

Looking up O=c1ccc2c(N3C[C@@H]4[C@@H](CCP(=O)(O)O)[C@@H]4C3)ncnc2[nH]1 , I see its concentration at 0.5 h listed as 112

###

assay: AUC last in male ICR mouse at 25 mg/kg, po measured upto 24 hrs by LC-MS/MS analysis; type: ADME, organism-based; conditions: in vivo
MEASURED_QUANTITY: AUC(0-t) at 24 h
Include the unit right after the number.

Looking up O=c1ccc2c(N3C[C@@H]4[C@@H](CCP(=O)(O)O)[C@@H]4C3)ncnc2[nH]1 , I found its AUC(0-t) at 24 h recorded as 932 ng·h/mL
